target: 5-HT2 receptor (Rattus norvegicus)
Sequence (P14842 whole entry): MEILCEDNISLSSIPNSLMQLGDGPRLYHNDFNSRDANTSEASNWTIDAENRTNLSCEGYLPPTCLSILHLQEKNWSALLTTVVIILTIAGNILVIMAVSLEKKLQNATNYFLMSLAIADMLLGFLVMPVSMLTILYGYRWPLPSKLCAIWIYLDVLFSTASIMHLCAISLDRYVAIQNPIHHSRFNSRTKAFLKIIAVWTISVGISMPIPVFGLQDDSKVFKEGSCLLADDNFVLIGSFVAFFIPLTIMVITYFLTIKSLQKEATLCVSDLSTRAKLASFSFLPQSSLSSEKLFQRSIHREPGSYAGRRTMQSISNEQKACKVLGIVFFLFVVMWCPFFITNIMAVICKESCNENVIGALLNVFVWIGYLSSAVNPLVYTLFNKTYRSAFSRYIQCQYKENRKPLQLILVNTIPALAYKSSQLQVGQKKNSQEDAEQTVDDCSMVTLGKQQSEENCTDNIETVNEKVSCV
Provide the recorded pKi for the entries that follow.
Answers are plain numbers, as −log10 of the molar value.

Example results:
> print(dat)
                                   compound  experimental.result
1  CC1CN(C2=Nc3ccccc3Oc3ccccc32)CC(C)N1 (stereo not shown)                 6.43
2  CC1CN(C2=Nc3ccccc3Oc3ccccc32)C(C)CN1 (stereo not shown)                 7.04
3  CC1CN(C2=Nc3ccccc3Nc3cc(Cl)ccc32)CC(C)N1 (stereo not shown)                 7.62

Consider the additional compound presented here.
Provide only the value of recorded pKi for CC1CN(C2=Nc3cc(Cl)ccc3Oc3ccccc32)CC(C)N1 (stereo not shown)
7.87
